system: LOX IMVI melanoma; test: NCI tumour cell line growth inhibition, 48 h
EXPERIMENTAL READOUT: TGI

- CSc1ccc(C2=C(c3ccccc3)C(=O)OC2)cc1: 38.7 µM
- NS(=O)(=O)c1ccc(Nc2cc(-c3ccc(O)c(F)c3)[nH]n2)cc1: > 25 µM
- Cc1cc2ncn(-c3nc4ccccc4nc3C(C#N)S(C)(=O)=O)c2cc1C (stereo unspecified): > 100 µM
- CN(C)c1ccc(/C=C\c2ccnc3ccccc23)cc1: > 100 µM
- C/C(=N\O)c1ccc2ccc3ccccc3c2c1: 60.6 µM
- O=c1[nH]nc(Cc2ccccc2)n1/N=C/c1cccs1: > 100 µM
- OCC#CCNCl: > 100 µM
- Cc1ccc(CNc2ccc(Br)cc2)cc1: > 100 µM
- NS(=O)(=O)c1ccc(NC(=O)N/N=C/c2ccccc2O)cc1: > 100 µM
- COc1cc[c]([Sn]([c]2ccc(OC)cc2)([c]2ccc(OC)cc2)[c]2ccc(OC)cc2)cc1: 29.4 µM
- C=C1C(=O)O[C@H]2[C@H]1CC/C(COC(=O)c1cc(OC)c(OC)c(OC)c1)=C\CC[C@@]1(C)O[C@@H]21: 2.73 µM
